# assayTarget: Cannabinoid receptor 1 (Mus musculus)
# Sequence (P47746 whole entry): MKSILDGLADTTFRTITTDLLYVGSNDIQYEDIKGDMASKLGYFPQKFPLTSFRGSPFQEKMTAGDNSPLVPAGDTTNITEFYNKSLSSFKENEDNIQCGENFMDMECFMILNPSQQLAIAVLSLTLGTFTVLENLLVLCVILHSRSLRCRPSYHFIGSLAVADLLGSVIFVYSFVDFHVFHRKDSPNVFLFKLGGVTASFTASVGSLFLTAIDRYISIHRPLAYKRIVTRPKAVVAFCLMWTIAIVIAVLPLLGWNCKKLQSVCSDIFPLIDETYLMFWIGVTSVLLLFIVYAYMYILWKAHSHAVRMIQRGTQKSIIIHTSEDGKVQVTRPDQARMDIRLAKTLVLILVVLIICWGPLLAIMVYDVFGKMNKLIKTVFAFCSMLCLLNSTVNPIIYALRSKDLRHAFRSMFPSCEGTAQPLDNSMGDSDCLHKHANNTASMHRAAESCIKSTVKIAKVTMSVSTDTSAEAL
# procedureText: Agonist activity at CB1 receptor expressed in mouse brain membrane by [35S]GTPgammaS binding assay
# Format: functional, cell membranes
Known EC50 of a selection of compounds
Give your result in nM as a bare value.

EC50 value, target or system Cannabinoid receptor 1 (Mus musculus), for `CCCCC/C=C\C/C=C\C/C=C\C/C=C\CCCC(=O)N[C@@H]1C[C@H]1O` : 780

Pending compound:
EC50 value, target or system Cannabinoid receptor 1 (Mus musculus), for `CCCCC/C=C\C/C=C\C/C=C\C/C=C\CCCC(=O)N[C@H]1C[C@@H]1O` : 2550
